Source of measurements: patent US5789188A

Tested on: E. coli MC1061 containing pCBSal
Test: MIC (LD 90) of maximally induced tetA (plasmid pCBSal)
Type: cell-based
Conditions: Escherichia coli, read-out: MIC (LD 90) of Maximally Induced tetA, pCBSal
Each entry below lists one item and its recorded MIC value.
Quick note: give the figure in µg/mL, leave out the unit.

Some entries whose results are on file:
## Input // returns reported MIC for input CN(C)[C@@H]1C(=O)C(C(N)=O)=C(O)[C@@]2(O)C(=O)C3=C(O)c4c(O)cccc4C[C@H]3C[C@@H]12
## Output 20

## Input // returns reported MIC for input C[C@H]1c2cccc(O)c2C(O)=C2C(=O)[C@]3(O)C(O)=C(C(N)=O)C(=O)[C@@H](N(C)C)[C@@H]3[C@@H](O)[C@@H]21
## Output 40

## Input // returns reported MIC for input CN(C)C1C(=O)C(C(N)=O)=C(O)C2(O)C(=O)C3=C(O)c4c(O)cccc4C(C)(O)C3CC12 (stereo not shown)
## Output 150

## Input // returns reported MIC for input Cc1c2c(c(O)c3c(O)cccc13)C(=O)C1(O)C(O)=C(C(N)=O)C(=O)C(N(C)C)C1C2 (stereo not shown) [AnhydroTc]
## Output 3

## Input // returns reported MIC for input CN(C)c1ccc(O)c2c1C[C@H]1C[C@H]3[C@H](N(C)C)C(O)=C(C(N)=O)C(=O)[C@@]3(O)C(O)=C1C2=O
## Output 14

***
## Input // returns reported MIC for input CN(C)[C@@H]1C(O)=C(C(N)=O)C(=O)[C@@]2(O)C(O)=C3C(=O)c4c(O)ccc(Cl)c4[C@@](C)(O)[C@H]3C[C@@H]12
## Output 50
